Molecular target: plasmin (Homo sapiens, UniProt P00747)
Construct: The amino-terminal heavy chain of PL consists of five kringle domains; The C-terminal light chain of plasmin is a typical serine protease (SP); purchased Chromogenix (Milano, Italy)
Sequence (P00747 97-580 limits assumed): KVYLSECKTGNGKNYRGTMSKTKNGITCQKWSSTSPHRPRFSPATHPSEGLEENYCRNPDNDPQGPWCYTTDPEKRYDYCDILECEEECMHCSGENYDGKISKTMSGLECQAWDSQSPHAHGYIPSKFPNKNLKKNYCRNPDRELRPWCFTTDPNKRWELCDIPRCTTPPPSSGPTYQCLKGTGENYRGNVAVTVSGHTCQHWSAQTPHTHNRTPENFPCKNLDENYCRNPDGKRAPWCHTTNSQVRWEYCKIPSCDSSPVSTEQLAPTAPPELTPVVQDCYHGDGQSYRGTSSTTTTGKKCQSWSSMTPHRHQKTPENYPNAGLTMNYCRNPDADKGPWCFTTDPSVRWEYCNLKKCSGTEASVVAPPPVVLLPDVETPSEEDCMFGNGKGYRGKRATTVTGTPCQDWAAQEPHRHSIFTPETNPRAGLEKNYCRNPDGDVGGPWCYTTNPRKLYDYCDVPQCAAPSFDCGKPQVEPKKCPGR
Sequence (P00747 581-810 limits assumed): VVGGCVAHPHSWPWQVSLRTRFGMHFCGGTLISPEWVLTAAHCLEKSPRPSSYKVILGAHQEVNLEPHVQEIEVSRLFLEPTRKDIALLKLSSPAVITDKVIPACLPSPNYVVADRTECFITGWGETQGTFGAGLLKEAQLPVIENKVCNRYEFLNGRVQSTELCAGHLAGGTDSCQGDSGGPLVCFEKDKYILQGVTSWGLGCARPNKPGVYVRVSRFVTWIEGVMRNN
Assay: Amidolytic activity of plasmin (substrate S-2251)
Assay type: biochemical
Conditions: amidolytic activity, S-2251, tris buffer pH 7.4
Non-standard residues stand in square brackets, D forms with d. Residues, ends and D or L forms follow the SMILES beside them. Ahx = NCCCCCC(=O)O

molecule | unitText | inequalityOperator | IC50
C[C@@H](N)C(=O)N[C@@H](Cc1ccccc1)C(=O)N[C@@H](CCCCN)C(=O)NCCCCCC(=O)NCCCCCN | mM | = | 1.11
C[C@H](N)C(=O)N[C@@H](Cc1ccccc1)C(=O)NCCCCCC(N)=O [Compound 10, H–Ala–Phe–EACA–NH2] (H-Ala-Phe-[Ahx]-NH2) | mM | > | 20
NCCCC[C@H](NC(=O)[C@@H](N)Cc1ccccc1)C(=O)NCCCCCC(N)=O [Compound 6, H–Phe–Lys–EACA–NH2] (H-Phe-Lys-[Ahx]-NH2) | mM | = | 1.43
C[C@@H](N)C(=O)N[C@@H](Cc1ccccc1)C(=O)N[C@@H](CCCCN)C(=O)NCCCCCC(=O)O [Compound 2, H–D-Ala–Phe–Lys–EACA–OH] (H-[dA]FK[Ahx]-OH) | mM | = | 3.37
C[C@H](N)C(=O)N[C@@H](Cc1ccccc1)C(=O)N[C@@H](CCCCN)C(=O)NCCCCCC(=O)O [Compound 3, H–Ala–Phe–Lys–EACA–OH] (H-AFK[Ahx]-OH) | mM | = | 4.82
C[C@H](N)C(=O)N[C@@H](Cc1ccccc1)C(=O)NCCCCCC(=O)NCCCCCN | mM | > | 20

====

Biological target: plasmin (Homo sapiens)
Construct: The amino-terminal heavy chain of PL consists of five kringle domains; The C-terminal light chain of plasmin is a typical serine protease (SP); purchased Chromogenix (Milano, Italy)
Assay: Amidolytic activity of plasmin (substrate S-2251)
Type: biochemical
Conditions: amidolytic activity, S-2251, tris buffer pH 7.4
Non-standard residues stand in square brackets, D forms with d. Residues, ends and D or L forms follow the SMILES beside them. Ahx = NCCCCCC(=O)O
Overview of recorded IC50 for various compounds
experimentalReadout: IC50 (mM)

compound | experimentalReadout | unitText | experimentalResult
NCCCC[C@H](NC(=O)[C@@H](N)Cc1ccccc1)C(=O)NCCCCCC(=O)O [Compound 1, H–Phe–Lys–EACA–OH] (H-Phe-Lys-[Ahx]-OH) | IC50 | mM | 11.4
C[C@@H](N)C(=O)N[C@@H](Cc1ccccc1)C(=O)NCCCCCC(=O)NCCCCCN | IC50 | mM | 4.77
C[C@H](N)C(=O)N[C@@H](Cc1ccccc1)C(=O)N[C@@H](CCCCN)C(=O)NCCCCCC(N)=O [Compound 8, H–Ala–Phe–Lys–EACA–NH2] (H-AFK[Ahx]-NH2) | IC50 | mM | 0.13

====

Item-by-item account of LOT lysis onset time (clot amplitude reduced by 15 %)
Tested on: fibrinolysis in whole blood
Test: Thromboelastometric (ROTEM) analysis of clot formation and fibrinolysis in whole blood
Parameters: species or system human
Conditions: recalcified human whole blood, 140 ng/ml TF, 125 ng/ml tPA
Description: Five healthy volunteers, men (age range: 25–34 years)) with normal blood cell counts were entered into the study. Healthy volunteers had not taken medication known to affect platelet function and/or coagulation for at least 10 days before blood sampling. Blood was stored at room temperature for 30 min after venipuncture and then was evaluated by thromboelastometric analyses. Thromboelastometric measurements were performed using ROTEM system (Tem International GmbH, Manheim, Germany). […]
Non-standard residues stand in square brackets, D forms with d. Residues, ends and D or L forms follow the SMILES beside them. Ahx = NCCCCCC(=O)O
experimentalReadout: LOT lysis onset time (clot amplitude reduced by 15 %) (s)

molecule | inequalityOperator | experimentalResult
C[C@@H](N)C(=O)N[C@@H](Cc1ccccc1)C(=O)N[C@@H](CCCCN)C(=O)NCCCCCC(N)=O [Compound 7, H–D-Ala–Phe–Lys–EACA–NH2] (H-[dA]FK[Ahx]-NH2) | = | 2519
NCCCCCC(N)=O [H–EACA–NH2, reference compound] | = | 2488
C[C@H](N)C(=O)N[C@@H](Cc1ccccc1)C(=O)N[C@@H](CCCCN)C(=O)NCCCCCC(N)=O [Compound 8, H–Ala–Phe–Lys–EACA–NH2] (H-AFK[Ahx]-NH2) | = | 2731
NCCCCCC(=O)O [EACA, 6-aminohexanoic acid] | ≥ | 4084

Value source: paper PMC5401710
